Test system: Interferon-α
Experiment: Induction of Interferon-α using fresh human PBMCs
Format: cell-based
Conditions: PBMC, 24 hr incubation, relative to 2 μM resiquimod control, read-out: mean pEC50 for induction of IFN-α (converted)
readout: EC50

>>> result("CCCCOc1nc(N)c2[nH]c(=O)n(CC3CCN(CC)CC3)c2n1 [Example 7]")
"< 100 nM"
>>> result("CCC[C@H](C)Oc1nc(N)c2[nH]c(=O)n(CCC3CCCN(CC)C3)c2n1 (some centres unmarked) [Example 41]")
"< 0.316 nM"
>>> result("CCCCOc1nc(N)c2[nH]c(=O)n(CCC3CCCN(CC)C3)c2n1 (centres unmarked) [Example 30]")
"< 10 nM"
>>> result("CCC[C@H](C)Oc1nc(N)c2[nH]c(=O)n(CCCC3CCNCC3)c2n1 [Example 104]")
"< 0.316 nM"
>>> result("CCCCOc1nc(N)c2[nH]c(=O)n(CCCC3CCN(C4CCCCC4)CC3)c2n1 [Example 102]")
"< 10 nM"
